Tested on: Candida albicans
PROTOCOL DETAILS: Antifungal activity against Candida albicans ATCC 10231 by macro-broth dilution assay
Assay type: functional
List of MIC values.

COMPOUND	TARGET OR SYSTEM	MIC / µg/mL
Brc1ccc(COC(Cn2cnc3ccccc32)c2ccccc2)cc1 (stereo not given)	Candida albicans	25
Clc1cccc(Cl)c1COC(Cn1cnc2ccccc21)c1ccccc1 (stereo not given)	Candida albicans	12.5
Clc1ccc(COC(Cn2ccnc2)c2ccc(Cl)cc2Cl)c(Cl)c1 (stereo not given)	Candida albicans	0.19
Fc1ccc(COC(Cn2cnc3ccccc32)c2ccccc2)cc1 (stereo not given)	Candida albicans	25
OC(Cn1cncn1)(Cn1cncn1)c1ccc(F)cc1F	Candida albicans	0.78
Clc1ccc(COC(Cn2cnc3ccccc32)c2ccccc2)cc1Cl (stereo not given)	Candida albicans	12.5
c1ccc(COC(Cn2cnc3ccccc32)c2ccccc2)cc1 (stereo not given)	Candida albicans	25
FC(F)(F)c1ccc(COC(Cn2cnc3ccccc32)c2ccccc2)cc1 (stereo not given)	Candida albicans	25
Clc1ccc(COC(Cn2cnc3ccccc32)c2ccccc2)c(Cl)c1 (stereo not given)	Candida albicans	25
Clc1ccc(COC(Cn2cnc3ccccc32)c2ccccc2)cc1 (stereo not given)	Candida albicans	25

Cited source: ChEMBL document CHEMBL1147179
